Where these numbers come from: patent US20240392013A1

- target under test: T1, IL1RAP on HEK-Blue IL1β / HEK-Blue IL33 reporter cells (UniProt Q9NPH3 21-570, limits assumed)
- T1 sequence (looked up): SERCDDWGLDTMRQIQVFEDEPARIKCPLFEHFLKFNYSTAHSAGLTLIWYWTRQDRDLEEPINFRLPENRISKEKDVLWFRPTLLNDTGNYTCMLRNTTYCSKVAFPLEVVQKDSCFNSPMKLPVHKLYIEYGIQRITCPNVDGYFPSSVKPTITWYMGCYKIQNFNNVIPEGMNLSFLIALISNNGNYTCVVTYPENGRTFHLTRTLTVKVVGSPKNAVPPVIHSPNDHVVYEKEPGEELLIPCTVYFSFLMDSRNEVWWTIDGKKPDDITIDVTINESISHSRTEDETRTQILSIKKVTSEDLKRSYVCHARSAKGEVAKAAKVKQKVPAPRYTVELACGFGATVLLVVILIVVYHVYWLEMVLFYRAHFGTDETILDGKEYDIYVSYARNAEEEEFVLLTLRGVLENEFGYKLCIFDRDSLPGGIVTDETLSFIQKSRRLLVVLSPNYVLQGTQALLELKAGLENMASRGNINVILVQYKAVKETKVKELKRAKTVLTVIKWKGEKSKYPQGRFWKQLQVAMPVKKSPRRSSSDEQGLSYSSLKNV
- procedure summary: cell-based or functional assay
measurement kind: Max % Inhibition at 200 nM, HEK-BlueIL33 NFκB Reporter Assay (%)

| binder | unit string | readout number |
| --- | --- | --- |
| STLX2043 (antibody, V domains shown, Purified from hybridoma of immunized Alivamab mice; intact IgG; captured on anti-mouse IgG Fc sensors in Octet; kappa light chain; also called 74804_43F04A) VH: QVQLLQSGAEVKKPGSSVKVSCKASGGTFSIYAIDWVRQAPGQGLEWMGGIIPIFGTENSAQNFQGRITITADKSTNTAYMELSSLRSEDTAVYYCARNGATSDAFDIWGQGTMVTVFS VL: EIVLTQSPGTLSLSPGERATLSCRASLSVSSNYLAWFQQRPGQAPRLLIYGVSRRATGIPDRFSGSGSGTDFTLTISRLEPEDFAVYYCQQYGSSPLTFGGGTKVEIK | % | 85 |
